Reference for the values: patent US20220298163A1

target: EGFR (Homo sapiens); test: Biochemical kinase selectivity: IC50 determination of EGFR; settings: TR-FRET, 20 μM ATP
Sequence (P00533 25-1210): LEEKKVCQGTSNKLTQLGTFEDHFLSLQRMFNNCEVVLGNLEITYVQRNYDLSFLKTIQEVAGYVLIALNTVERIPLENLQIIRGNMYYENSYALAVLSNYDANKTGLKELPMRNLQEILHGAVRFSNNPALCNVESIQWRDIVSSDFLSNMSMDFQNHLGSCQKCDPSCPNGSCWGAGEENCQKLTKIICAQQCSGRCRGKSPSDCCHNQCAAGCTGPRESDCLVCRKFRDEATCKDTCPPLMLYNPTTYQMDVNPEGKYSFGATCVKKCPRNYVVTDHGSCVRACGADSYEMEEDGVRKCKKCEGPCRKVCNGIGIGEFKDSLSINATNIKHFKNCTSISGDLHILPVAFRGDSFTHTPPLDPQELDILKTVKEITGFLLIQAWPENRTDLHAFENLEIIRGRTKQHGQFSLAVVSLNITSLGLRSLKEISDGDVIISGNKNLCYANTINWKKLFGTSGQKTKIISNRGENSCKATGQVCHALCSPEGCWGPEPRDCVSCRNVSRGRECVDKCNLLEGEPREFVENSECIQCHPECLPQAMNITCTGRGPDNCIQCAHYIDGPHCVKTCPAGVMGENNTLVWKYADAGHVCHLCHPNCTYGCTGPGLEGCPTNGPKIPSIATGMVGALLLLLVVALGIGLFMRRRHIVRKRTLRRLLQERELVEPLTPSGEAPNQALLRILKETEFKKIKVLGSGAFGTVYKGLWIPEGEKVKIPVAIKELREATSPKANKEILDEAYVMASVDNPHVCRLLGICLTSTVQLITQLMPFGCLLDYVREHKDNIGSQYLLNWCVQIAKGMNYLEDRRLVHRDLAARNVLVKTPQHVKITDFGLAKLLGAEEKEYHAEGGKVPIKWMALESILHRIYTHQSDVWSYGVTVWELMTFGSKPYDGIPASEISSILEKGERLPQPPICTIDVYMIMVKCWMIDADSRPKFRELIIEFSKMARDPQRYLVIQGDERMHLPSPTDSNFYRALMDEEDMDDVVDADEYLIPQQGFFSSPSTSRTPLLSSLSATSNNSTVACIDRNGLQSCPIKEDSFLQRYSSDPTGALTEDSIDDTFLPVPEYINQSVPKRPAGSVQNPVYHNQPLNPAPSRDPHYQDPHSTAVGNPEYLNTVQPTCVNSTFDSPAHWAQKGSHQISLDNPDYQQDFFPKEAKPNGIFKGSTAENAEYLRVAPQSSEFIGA
outcome-measure: IC50 (nM)

Solved cases below.
C=CC(=O)N1CCC(C2CCNc3c(C(N)=O)c(-c4cc(Cl)c(C)c(Cl)c4)nn32)CC1 (stereo not shown)	1190
C=CC(=O)N1CCC(C2CCNc3c(C(N)=O)c(-c4cc(OC)c(C5CC5)c(OCC)c4)nn32)CC1 (stereo not shown)	9390
C=CC(=O)N1CC2CNc3c(C(N)=O)c(-c4cc(OC)c(C)c(OC)c4)nn3C2C1 (stereo not shown)	536

P: C=CC(=O)N1CCC(C2CCNc3c(C(N)=O)c(-c4cc(OC)c(C5CCCCC5)c(OC)c4)nn32)CC1 (stereo not shown)
Q: C=CC(=O)N1CCC(C2CCNc3c(C(N)=O)c(-c4cc(OC)c(I)c(OC)c4)nn32)CC1 (stereo not shown)
Of P and Q , which one carries the higher reported IC50? // caller expects the label of the chosen entry
P
(P: 6080 nM, Q: 1380 nM)
